These measurements were taken from paper PMC10488051.

target: SARS-CoV-2 PL^pro (Severe acute respiratory syndrome coronavirus 2); test: PL^pro enzymatic inhibition assay (FRET-based, Z-RLRGG-AMC substrate); format: biochemical; details: Table 1 thiazole series; enzymatic inhibition assay, 25 °C, pH 7.5; uncertainty approx. 1.8-fold of Kd
Would you kindly list Kd for each of these compounds?
Respond numerically; units are µM and should not be typed.

// fetch Kd given entry "Cc1csc(N(CCC(=O)O)c2cccc3ccccc23)n1"
110

Assign Kd to the following record: "O=C(O)CCN(c1nc(-c2ccc([N+](=O)[O-])cc2)cs1)c1cccc2ccccc12"
25

Please supply the value of reported Kd for the item "NC(=S)N(CCC(=O)O)c1cccc2ccccc12"
29
